The reported numbers originate from ChEMBL document CHEMBL1125532.

Molecular target: Cholinesterases; ACHE & BCHE (Homo sapiens) (UniProt P06276+P22303)
Experiment: Ratio of IC50(BChE-I) to IC50(AChE-I)
Type: protein assay
For each entry below, report its Ratio value.
One number for each entry.

Example cases with answers are listed next.
CN(C)Cc1ccc(CSCCNc2cc(N)c([N+](=O)[O-])cc2[N+](=O)[O-])o1	28
CN(C)Cc1ccc(CSCCNc2cc(NN)c([N+](=O)[O-])cc2[N+](=O)[O-])o1	67

Take each entry in turn and give its Ratio.
1. CN(C)Cc1ccc(CSCCNc2cc(Nc3ccccc3)c([N+](=O)[O-])cc2[N+](=O)[O-])o1
2. CN(C)Cc1ccc(CSCCNc2ccc([N+](=O)[O-])cc2[N+](=O)[O-])o1
3. CC(C)=NNc1cc(NCCSCc2ccc(CN(C)C)o2)c([N+](=O)[O-])cc1[N+](=O)[O-]

[2.5, 9.2, 19]

Each molecule below has a recorded value; state its Ratio.
1. CN(C)Cc1ccc(CSCCNc2cc(Nc3ccc(F)cc3)c([N+](=O)[O-])cc2[N+](=O)[O-])o1
2. CCCNc1cc(NCCSCc2ccc(CN(C)C)o2)c([N+](=O)[O-])cc1[N+](=O)[O-]

1.6
15

Quick one: give me Ratio for each item below, same order please.
1. CN(C)Cc1ccc(CSCCNc2cc(NCCCN3CCOCC3)c([N+](=O)[O-])cc2[N+](=O)[O-])o1
2. CN(C)Cc1ccc(CSCCNc2cc(NCc3ccccn3)c([N+](=O)[O-])cc2[N+](=O)[O-])o1
3. CN(C)Cc1ccc(CSCCNc2cc(NCc3cccnc3)c([N+](=O)[O-])cc2[N+](=O)[O-])o1

1: 13; 2: 4.1; 3: 19

====

Molecular target: Muscarinic acetylcholine receptor M1 (Mus musculus)
Sequence (P12657 whole entry): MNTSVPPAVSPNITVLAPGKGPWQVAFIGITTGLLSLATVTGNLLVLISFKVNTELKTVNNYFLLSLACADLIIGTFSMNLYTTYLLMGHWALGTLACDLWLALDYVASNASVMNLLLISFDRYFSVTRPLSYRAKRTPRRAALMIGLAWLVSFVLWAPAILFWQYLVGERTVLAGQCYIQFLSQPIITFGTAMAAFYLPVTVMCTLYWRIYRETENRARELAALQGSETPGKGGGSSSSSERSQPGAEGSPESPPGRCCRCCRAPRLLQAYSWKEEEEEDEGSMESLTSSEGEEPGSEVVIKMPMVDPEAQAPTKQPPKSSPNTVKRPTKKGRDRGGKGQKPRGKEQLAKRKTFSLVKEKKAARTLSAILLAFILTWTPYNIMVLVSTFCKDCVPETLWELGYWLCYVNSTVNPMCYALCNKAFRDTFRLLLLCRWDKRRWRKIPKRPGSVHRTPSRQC
Experiment: biochemical
Description: Inhibition of [3H]pirenzepine binding to mouse muscarinic acetylcholine receptor M1 from cerebral cortex
Readout name: IC50 (µM)
One number for each entry, in µM.

CN(C)Cc1ccc(CSCCNc2cc(Nc3ccccc3C#N)c([N+](=O)[O-])cc2[N+](=O)[O-])o1	3.3

State recorded IC50 for all listed compounds.
1. CN(C)Cc1ccc(CSCCNc2cc(NCc3ccccc3)c([N+](=O)[O-])cc2[N+](=O)[O-])o1
2. CN(C)Cc1ccc(CSCCNc2cc(Nc3ccccc3)c([N+](=O)[O-])cc2[N+](=O)[O-])o1
3. CN(C)Cc1ccc(CSCCNc2cc(NCCCN3CCOCC3)c([N+](=O)[O-])cc2[N+](=O)[O-])o1

[2, 6.4, 0.53]

# batch: return IC50 for each of the 5 compounds below
1. CC(C)=NNc1cc(NCCSCc2ccc(CN(C)C)o2)c([N+](=O)[O-])cc1[N+](=O)[O-]
2. CN(C)CCNc1cc(NCCSCc2ccc(CN(C)C)o2)c([N+](=O)[O-])cc1[N+](=O)[O-]
3. CN(C)Cc1ccc(CSCCNc2cc(NCc3ccccn3)c([N+](=O)[O-])cc2[N+](=O)[O-])o1
4. CNc1cc(NCCSCc2ccc(CN(C)C)o2)c([N+](=O)[O-])cc1[N+](=O)[O-]
5. CCCNc1cc(NCCSCc2ccc(CN(C)C)o2)c([N+](=O)[O-])cc1[N+](=O)[O-]

1: 3.1; 2: 0.67; 3: 1.5; 4: 0.43; 5: 3.2

I am curious: what IC50 value has been reported for CN(C)Cc1ccc(CSCCNc2cc(N)c([N+](=O)[O-])cc2[N+](=O)[O-])o1 ? 3.8

====

Give pIC50 for every item shown.
Molecular target: Acetylcholinesterase (Homo sapiens)
Sequence (P22303 whole entry): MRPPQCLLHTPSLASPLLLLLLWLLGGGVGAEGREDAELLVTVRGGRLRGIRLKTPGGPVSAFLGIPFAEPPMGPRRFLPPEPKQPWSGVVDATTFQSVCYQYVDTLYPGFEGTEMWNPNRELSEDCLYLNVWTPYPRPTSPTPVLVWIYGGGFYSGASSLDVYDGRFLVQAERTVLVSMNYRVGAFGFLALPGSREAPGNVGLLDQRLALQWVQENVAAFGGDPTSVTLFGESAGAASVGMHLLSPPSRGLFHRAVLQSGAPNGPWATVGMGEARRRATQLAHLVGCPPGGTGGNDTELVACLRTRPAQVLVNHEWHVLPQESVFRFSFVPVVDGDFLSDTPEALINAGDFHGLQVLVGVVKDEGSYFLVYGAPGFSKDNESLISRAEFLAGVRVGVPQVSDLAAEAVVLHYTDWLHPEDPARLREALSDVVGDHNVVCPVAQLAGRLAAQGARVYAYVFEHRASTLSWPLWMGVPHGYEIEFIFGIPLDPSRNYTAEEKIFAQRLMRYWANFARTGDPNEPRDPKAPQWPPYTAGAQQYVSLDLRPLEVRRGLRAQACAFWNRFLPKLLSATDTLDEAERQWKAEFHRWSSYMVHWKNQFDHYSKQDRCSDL
Test: In vitro acetyl cholinesterase (AChE-I) inhibitory activity to determine its ability to reverse the cholinergic deficit characteristic of AD
Answers are plain numbers, as −log10 of the molar value.

CN(C)Cc1ccc(CSCCNc2cccc(F)c2C#N)o1	5.68

Next item in the queue.
I'd like to know its pIC50. The compound in question is CN(C)Cc1ccc(CSCCNc2nnccc2[N+](=O)[O-])o1 6.33

====

Each entry below carries its measured pIC50, system: Cholinesterase (Homo sapiens, UniProt P06276).
Sequence (P06276 whole entry): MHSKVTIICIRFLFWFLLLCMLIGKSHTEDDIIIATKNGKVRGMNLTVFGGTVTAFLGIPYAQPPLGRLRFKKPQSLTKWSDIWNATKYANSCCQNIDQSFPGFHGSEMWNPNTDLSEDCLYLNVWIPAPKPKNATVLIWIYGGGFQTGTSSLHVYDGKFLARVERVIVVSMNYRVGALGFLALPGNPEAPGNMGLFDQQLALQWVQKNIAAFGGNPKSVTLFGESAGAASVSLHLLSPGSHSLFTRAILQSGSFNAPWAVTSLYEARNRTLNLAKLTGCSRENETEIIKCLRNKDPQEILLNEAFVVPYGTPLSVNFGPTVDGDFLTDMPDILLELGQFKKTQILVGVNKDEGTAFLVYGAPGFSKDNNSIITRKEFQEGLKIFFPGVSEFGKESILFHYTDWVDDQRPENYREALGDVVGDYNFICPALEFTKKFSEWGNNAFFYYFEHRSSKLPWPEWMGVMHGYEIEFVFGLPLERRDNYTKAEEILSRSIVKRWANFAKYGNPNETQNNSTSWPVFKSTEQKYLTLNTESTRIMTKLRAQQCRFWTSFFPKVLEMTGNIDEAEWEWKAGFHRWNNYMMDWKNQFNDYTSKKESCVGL
One number for each entry, as −log10 of the molar value.

Solved entries (count: 3):
CC(C)=NNc1cc(NCCSCc2ccc(CN(C)C)o2)c([N+](=O)[O-])cc1[N+](=O)[O-]	5.08
CN(C)Cc1ccc(CSCCNc2cc(Nc3ncccc3[N+](=O)[O-])c([N+](=O)[O-])cc2[N+](=O)[O-])o1	4.74
CN(C)Cc1ccc(CSCCNc2ccc(F)cc2[N+](=O)[O-])o1	5.48

Please report pIC50 for every entry that follows.
1. CN(C)Cc1ccc(CSCCNc2ccc([N+](=O)[O-])cc2[N+](=O)[O-])o1
2. CN(C)Cc1ccc(CSCCNc2cc(Oc3ccc([N+](=O)[O-])cc3)c([N+](=O)[O-])cc2[N+](=O)[O-])o1
3. CN(C)Cc1ccc(CSCCNc2cc(Nc3ccccc3C#N)c([N+](=O)[O-])cc2[N+](=O)[O-])o1
4. CN(C)Cc1ccc(CSCCNc2cc(NCc3cccnc3)c([N+](=O)[O-])cc2[N+](=O)[O-])o1
5. CN(C)Cc1ccc(CSCCNc2cc(NCc3ccccn3)c([N+](=O)[O-])cc2[N+](=O)[O-])o1

1: 5.74; 2: 5.96; 3: 5.74; 4: 5.21; 5: 5.28

====

Reported values: pIC50 for Acetylcholinesterase (Homo sapiens), one per item.
Numbers only, as −log10 of the molar value.

CN(C)Cc1ccc(CSCCNc2cc(N)c([N+](=O)[O-])cc2[N+](=O)[O-])o1	7.08
CN(C)Cc1ccc(CSCCNc2cc(NCCCN3CCOCC3)c([N+](=O)[O-])cc2[N+](=O)[O-])o1	6.43

The following compounds each have a reported value; give each one's pIC50.
1. CCCNc1cc(NCCSCc2ccc(CN(C)C)o2)c([N+](=O)[O-])cc1[N+](=O)[O-]
2. CN(C)Cc1ccc(CSCCNc2cc(NCc3cccnc3)c([N+](=O)[O-])cc2[N+](=O)[O-])o1
3. CN(C)Cc1ccc(CSCCNc2cc(Nc3ccc(F)cc3)c([N+](=O)[O-])cc2[N+](=O)[O-])o1
4. CN(C)CCNc1cc(NCCSCc2ccc(CN(C)C)o2)c([N+](=O)[O-])cc1[N+](=O)[O-]
5. CCCCCNc1cc(NCCSCc2ccc(CN(C)C)o2)c([N+](=O)[O-])cc1[N+](=O)[O-]
6. CN(C)Cc1ccc(CSCCNc2ccc(F)cc2[N+](=O)[O-])o1
7. CNc1cc(NCCSCc2ccc(CN(C)C)o2)c([N+](=O)[O-])cc1[N+](=O)[O-]
8. CC(C)=NNc1cc(NCCSCc2ccc(CN(C)C)o2)c([N+](=O)[O-])cc1[N+](=O)[O-]

[6.59, 6.51, 6.17, 6.28, 5.92, 6.19, 6.80, 6.36]

====

Molecular target: Muscarinic acetylcholine receptor M2 (Rattus norvegicus, UniProt P10980)
Sequence (P10980 whole entry): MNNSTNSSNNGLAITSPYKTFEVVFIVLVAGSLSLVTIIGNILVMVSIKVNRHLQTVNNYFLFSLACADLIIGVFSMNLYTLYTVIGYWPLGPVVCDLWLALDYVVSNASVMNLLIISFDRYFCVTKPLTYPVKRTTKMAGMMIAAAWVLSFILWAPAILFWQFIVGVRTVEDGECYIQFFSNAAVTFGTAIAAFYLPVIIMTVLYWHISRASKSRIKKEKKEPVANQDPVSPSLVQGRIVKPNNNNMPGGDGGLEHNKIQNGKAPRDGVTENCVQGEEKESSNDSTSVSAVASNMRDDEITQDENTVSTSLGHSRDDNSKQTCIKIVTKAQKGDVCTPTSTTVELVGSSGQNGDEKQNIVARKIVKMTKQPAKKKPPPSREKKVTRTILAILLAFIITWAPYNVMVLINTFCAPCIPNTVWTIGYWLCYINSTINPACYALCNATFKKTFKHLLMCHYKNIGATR
Assay: Binding affinity against rat muscarinic acetylcholine receptor M2 using heart tissue and [3H]N-methylscopolamine
Readout name: pIC50
Answers are plain numbers, as −log10 of the molar value.

Below are worked cases with known answers.
CCCNc1cc(NCCSCc2ccc(CN(C)C)o2)c([N+](=O)[O-])cc1[N+](=O)[O-]	5.46
CN(C)Cc1ccc(CSCCNc2cc(N)c([N+](=O)[O-])cc2[N+](=O)[O-])o1	5.17

Now for another entry.
Report pIC50 for CNc1cc(NCCSCc2ccc(CN(C)C)o2)c([N+](=O)[O-])cc1[N+](=O)[O-] please. 5.51

====

Lab note: IC50 readings collected with Acetylcholinesterase (Homo sapiens) for the following compounds.
One number for each entry, in nM.

Here's what some known entries look like.
CN(C)Cc1ccc(CSCCNc2cc(NCc3ccccn3)c([N+](=O)[O-])cc2[N+](=O)[O-])o1	1300
CN(C)Cc1ccc(CSCCNc2cc(Nc3ccccc3C#N)c([N+](=O)[O-])cc2[N+](=O)[O-])o1	630
CN(C)Cc1ccc(CSCCNc2cc(NN)c([N+](=O)[O-])cc2[N+](=O)[O-])o1	76
CN(C)Cc1ccc(CSCCNc2cc(Nc3ncccc3[N+](=O)[O-])c([N+](=O)[O-])cc2[N+](=O)[O-])o1	650
CN(C)Cc1ccc(CSCCNc2cc(Nc3ccccc3)c([N+](=O)[O-])cc2[N+](=O)[O-])o1	640

For every item below, please supply its IC50.
1. CN(C)Cc1ccc(CSCCNc2ccc([N+](=O)[O-])cc2[N+](=O)[O-])o1
2. CN(C)Cc1ccc(CSCCNc2cc(Oc3ccc([N+](=O)[O-])cc3)c([N+](=O)[O-])cc2[N+](=O)[O-])o1
3. CN(C)Cc1ccc(CSCCNc2cc(F)c([N+](=O)[O-])cc2[N+](=O)[O-])o1

[200, 270, 120]
